# targetOrTestSystem: human recombinant PDE5 (Homo sapiens, UniProt O76074)
# assayName: Inhibitory effect on cGMP-PDE (one-step assay, 8-[H3]-cGMP), human recombinant PDE5
pIC50 values by entry
# log scale: pIC50 equals minus log10 of the concentration in mol/L

compound	pIC50
COC(=O)C1CC(=O)N2[C@H](c3ccc4c(c3)OCO4)c3[nH]c4ccccc4c3C[C@@H]2C1O (stereo partly shown)	7.10
CC1=CCC(/C=C/C(=O)N2CCc3c([nH]c4ccccc34)C2c2ccc3c(c2)OCO3)CC1 (stereo not shown)	6.74
O=C(/C=C/c1ccccc1)N1CCc2c([nH]c3cc(-c4ccccc4)ccc23)C1c1ccc2c(c1)OCO2 (stereo not shown)	6.16
O=C(/C=C/c1ccccc1)N1CCc2c([nH]c3cc(Br)ccc23)C1c1ccc2c(c1)OCO2 (stereo not shown)	7.59
O=C1OCC(=O)N2[C@H](c3ccc4c(c3)OCO4)c3[nH]c4ccccc4c3C[C@H]12	7.30
COc1ccc([C@H]2c3[nH]c4ccccc4c3C[C@H]3COCC(=O)N32)cc1 (racemic)	6.52
O=C1COC[C@@H]2Cc3c([nH]c4ccccc34)[C@H](c3ccc4c(c3)OCO4)N12 (racemic)	7.15
Cc1cccc2c3c([nH]c12)C(c1ccc2c(c1)OCO2)N(C(=O)/C=C/c1ccc(C(=O)O)cc1)CC3 (stereo not shown)	8.52

input: State its pIC50 for this compound: CN1CN2[C@H](c3ccc4c(c3)OCO4)c3[nH]c4ccccc4c3C[C@@H]2C(=O)N1C
output: 7.03

input: Provide measured pIC50 value, entry: O=C1CCC(=O)N2[C@H](c3ccc4c(c3)OCO4)c3[nH]c4ccccc4c3C[C@@H]12 (racemic)
output: 6.26
